- assay info: Characteristics of lipid nanoparticles (size, PDI, encapsulation efficiency)
- Type: physicochemical
- condition info: polydispersity index; LNP with DSPC, cholesterol, PEG-1 and the compound
observed property: PDI

>  <molecule>
CCCCC(CCCC)OC(=O)CCCCCCCN(CCCCCCCC(=O)OCCC(CCC)CCC)CCCNc1c(NC)c(=O)c1=O [Compound 66]

>  <PDI>
0.25

$$$$
>  <molecule>
CCCCCCC(CCCCCC)OC(=O)CCCCCCCN(CCCCCCCC(=O)OCCC(CCCC)CCCC)CCCNc1c(NC)c(=O)c1=O [Compound 60]

>  <PDI>
0.14

$$$$
>  <molecule>
CCCC(CCC)CCOC(=O)CCCCCCCN(CCCCCCCC(=O)OCCC(CCC)CCC)CCCNc1c(NC)c(=O)c1=O [Compound 53]

>  <PDI>
0.28

$$$$
>  <molecule>
CCCCCC(CCCCC)CCOC(=O)CCCCCCCN(CCCCCCCC(=O)OCCC(CCC)CCC)CCCNc1c(NC)c(=O)c1=O [Compound 51]

>  <PDI>
0.12

$$$$
>  <molecule>
CCCCCC(CCCCC)CCOC(=O)CCCCCCCN(CCCCCCCC(=O)OCCC(CCCC)CCCC)CCCNc1c(NC)c(=O)c1=O [Compound 54]

>  <PDI>
0.10

$$$$
>  <molecule>
CCCCCC(CCCCC)OC(=O)CCCCCCCN(CCCCCCCC(=O)OCCC(CCC)CCC)CCCNc1c(NC)c(=O)c1=O [Compound 65]

>  <PDI>
0.17

$$$$
>  <molecule>
CCCCCCCC(CCCCCCC)OC(=O)CCCCCCCN(CCCCCCCC(=O)OCCC(CCC)CCC)CCCNc1c(NC)c(=O)c1=O [Compound 63]

>  <PDI>
0.15

$$$$
>  <molecule>
CCCCCCC(CCCCCC)OC(=O)CCCCCCCN(CCCCCCCC(=O)OCCC(CCC)CCC)CCCNc1c(NC)c(=O)c1=O [Compound 64]

>  <PDI>
0.13

$$$$
>  <molecule>
CCCCC(CCCC)CCOC(=O)CCCCCCCN(CCCCCCCC(=O)OC(CCCC)CCCC)CCCNc1c(NC)c(=O)c1=O [Compound 62]

>  <PDI>
0.17

$$$$
>  <molecule>
CCCCCC(CCCCC)CCOC(=O)CCCCCCCN(CCCCCCCC(=O)OC(CCCC)CCCC)CCCNc1c(NC)c(=O)c1=O [Compound 58]

>  <PDI>
0.12

$$$$

A: CCCCCC(CCCCC)OC(=O)CCCCCCCN(CCCCCCCC(=O)OCCC(CCCC)CCCC)CCCNc1c(NC)c(=O)c1=O [Compound 61]
B: CCCCC(CCCC)CCOC(=O)CCCCCCCN(CCCCCCCC(=O)OCCC(CCCC)CCCC)CCCNc1c(NC)c(=O)c1=O [Compound 55]
C: CCCCC(CCCC)CCOC(=O)CCCCCCCN(CCCCCCCC(=O)OCCC(CCC)CCC)CCCNc1c(NC)c(=O)c1=O [Compound 52]
Sequence the entries by PDI, beginning with the highest number. // respond by listing labels in the order requested
B, C, A
(B: 0.25, C: 0.16, A: 0.09)
